target: AbCGT V183D (Aloe vera, UniProt A0A7G9P699, V183D); test: Glycosyltransferase activity of AbCGT variant V183D; assay type: biochemical, Aloe barbadensis; details: reaction-3
Sequence (A0A7G9P699 1-470 V183D): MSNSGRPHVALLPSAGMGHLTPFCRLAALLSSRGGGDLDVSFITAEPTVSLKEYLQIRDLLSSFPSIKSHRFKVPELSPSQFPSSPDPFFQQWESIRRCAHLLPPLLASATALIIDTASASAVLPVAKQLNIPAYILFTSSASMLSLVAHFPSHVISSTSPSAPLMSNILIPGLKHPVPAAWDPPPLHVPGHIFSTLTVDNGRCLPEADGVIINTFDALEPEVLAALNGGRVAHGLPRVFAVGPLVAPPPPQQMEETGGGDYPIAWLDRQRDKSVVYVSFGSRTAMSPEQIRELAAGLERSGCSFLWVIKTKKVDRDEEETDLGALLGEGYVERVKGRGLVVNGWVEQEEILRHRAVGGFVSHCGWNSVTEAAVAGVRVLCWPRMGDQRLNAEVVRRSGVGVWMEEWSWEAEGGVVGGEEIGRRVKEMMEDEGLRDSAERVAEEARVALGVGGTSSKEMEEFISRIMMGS
metric name: V183D/yield of C-glycoside(%)
Numbers only, in %.

Reference set, count: 3
>  <compound>
COc1cc(O)c(C(C)=O)c(O)c1

>  <unit tag>
%

>  <numeric value>
7

$$$$
>  <compound>
COc1cc(O)c(C(C)=O)c(OC)c1

>  <unit tag>
%

>  <numeric value>
0

$$$$
>  <compound>
CC(=O)c1c(O)cc(C)cc1O

>  <unit tag>
%

>  <numeric value>
7.2

$$$$

Would you be so kind as to report V183D/yield of C-glycoside(%) for each listed record?
1. CC(=O)c1ccc(O)cc1
2. CC(=O)c1cc(O)cc(O)c1 [Compound 4, 3,5-dihydroxyacetophenone]
3. CC(=O)c1cccc(O)c1
4. CC(=O)c1c(O)cccc1O
5. CC(=O)c1ccc(O)cc1O [Compound 6, 2,4-dihydroxyacetophenone]
6. CC(=O)c1ccccc1O

[0, 0, 0, 7.9, 13.1, 0]

Would you be so kind as to report V183D/yield of C-glycoside(%) for each listed record?
1. Oc1cc(O)cc(OCCCCCCc2ccccc2)c1
2. O=C1CC(O)(c2ccc(O)cc2)Oc2cc(O)cc(O)c21 (centres unmarked) [Compound 23, 2-hydroxynaringenin]

0
99.2
